# Measured On: S1P5 (Homo sapiens (Human))
# Sequence (Q9H228 whole entry): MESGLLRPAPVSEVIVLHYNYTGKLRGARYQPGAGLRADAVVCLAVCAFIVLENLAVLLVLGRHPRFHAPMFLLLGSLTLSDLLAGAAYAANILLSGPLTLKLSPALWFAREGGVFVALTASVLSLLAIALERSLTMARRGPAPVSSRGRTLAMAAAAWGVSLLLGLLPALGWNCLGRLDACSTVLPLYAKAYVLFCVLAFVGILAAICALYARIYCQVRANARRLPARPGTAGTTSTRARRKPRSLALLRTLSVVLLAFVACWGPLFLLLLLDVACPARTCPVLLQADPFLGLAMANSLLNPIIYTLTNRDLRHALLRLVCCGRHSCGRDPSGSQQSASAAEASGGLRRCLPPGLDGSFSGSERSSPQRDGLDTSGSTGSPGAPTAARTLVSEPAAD
# Protocol Text: [32P]S1P competitive binding assay on cell membranes
# Condition Notes: competition against [32P]S1P, mean ± SD
pIC50: −log10 of the molar value.
Reported Property: pIC50

## Input Consider the molecule OCC(O)COCc1ccc(-c2noc(-c3ccc(OCCF)c(C(F)(F)F)c3)n2)cc1 (stereo not shown) and give its recorded pIC50.
## Output < 6.00

---

# Measured On: recombinant human S1P1 (Homo sapiens (Human), UniProt P21453)
# Sequence (P21453 whole entry): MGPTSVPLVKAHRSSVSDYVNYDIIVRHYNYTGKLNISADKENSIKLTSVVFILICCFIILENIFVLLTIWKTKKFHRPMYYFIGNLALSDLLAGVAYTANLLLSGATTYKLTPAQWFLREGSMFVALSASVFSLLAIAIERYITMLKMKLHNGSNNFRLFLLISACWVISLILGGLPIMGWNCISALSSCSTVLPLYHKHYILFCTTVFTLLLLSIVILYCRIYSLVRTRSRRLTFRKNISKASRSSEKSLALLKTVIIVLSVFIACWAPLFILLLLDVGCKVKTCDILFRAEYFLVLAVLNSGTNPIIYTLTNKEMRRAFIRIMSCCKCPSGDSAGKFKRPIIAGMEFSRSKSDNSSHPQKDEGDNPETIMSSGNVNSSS
# Protocol Text: [32P]S1P competitive binding assay on cell membranes
# Condition Notes: competition against [32P]S1P, membranes with recombinant human S1P1, mean ± SD; listed as TZ-43-113; read-out: S1P1 IC50 ± SD
Reported Property: IC50 (nM)
Please give a number only; it is taken to be in nM.

## Input Give a short answer stating reported IC50 for OCc1cn(Cc2ccc(-c3noc(-c4ccc(OCCF)c(C(F)(F)F)c4)n3)cc2)nn1 [Compound 22b] .
## Output 9.65

---

# Measured On: recombinant human S1P1 (Homo sapiens (Human))
# Protocol Text: [32P]S1P competitive binding assay on cell membranes
# Condition Notes: competition against [32P]S1P, membranes with recombinant human S1P1, mean ± SD; listed as TZ-43-102; read-out: S1P1 IC50 ± SD
Reported Property: pIC50
# pIC50 = -log10(concentration in molar units)

## Input Provide pIC50, system recombinant human S1P1 (Homo sapiens (Human)), entry CS(=O)(=O)NCc1ccc(-c2noc(-c3ccc(OCCF)c(C(F)(F)F)c3)n2)cc1 [Compound 19c]
## Output 7.40

---

# IC50 per entry
# Measured On: recombinant human S1P1 (Homo sapiens (Human), UniProt P21453)
# Protocol Text: [32P]S1P competitive binding assay on cell membranes
# Condition Notes: competition against [32P]S1P, membranes with recombinant human S1P1, mean ± SD; read-out: S1P1 IC50 ± SD

Recorded IC50, per entry:
[
  {
    "Molecule": "OCc1ccc(-c2noc(-c3ccc(OCCF)cc3)n2)cc1",
    "IC50": "> 1 µM"
  },
  {
    "Molecule": "O=C(O)c1ccc(-c2noc(-c3ccc(OCCF)c(C(F)(F)F)c3)n2)cc1 [Compound 20a]",
    "IC50": "> 1 µM"
  }
]

## Input Give the reported value of IC50 for this record: `O=C(O)C1CN(c2cccc(-c3noc(-c4ccc(OCCF)c(C(F)(F)F)c4)n3)c2)C1`
## Output > 1 µM
